Target: various enzymes (Homo sapiens)
Sequence (P45985 1-399): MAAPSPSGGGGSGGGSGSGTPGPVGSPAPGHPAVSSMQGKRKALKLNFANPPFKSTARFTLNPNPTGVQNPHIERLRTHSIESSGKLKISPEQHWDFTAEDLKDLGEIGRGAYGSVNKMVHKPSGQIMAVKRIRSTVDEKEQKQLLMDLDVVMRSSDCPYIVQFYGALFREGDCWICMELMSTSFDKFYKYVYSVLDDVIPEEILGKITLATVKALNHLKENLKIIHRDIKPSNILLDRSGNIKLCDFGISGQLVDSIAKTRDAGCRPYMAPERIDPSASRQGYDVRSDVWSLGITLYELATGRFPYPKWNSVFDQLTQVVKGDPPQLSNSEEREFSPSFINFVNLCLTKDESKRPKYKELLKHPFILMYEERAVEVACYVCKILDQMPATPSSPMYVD
measured attribute: IC50 (nM)
Numbers only, in nM.

# input molecule: CN1Cc2nn(C)c(C#N)c2-c2cnc3[nH]cc(c3c2)-c2cn(nc2C(F)(F)F)CCCC1=O [Compound 48] ; wanted: its IC50 173

* * *

target: DYRK1A (Homo sapiens, UniProt Q13627)
pIC50: −log10 of the molar value.
measured attribute: pIC50

Known results for compounds:
compound="CN1CCCCn2cc(c(C(F)(F)F)n2)-c2c[nH]c3ncc(cc23)-c2c(nn(C)c2C#N)C1=O [Compound 78]" measured_value="< 7.00"
compound="CN1Cc2nn(C)cc2-c2cnc3[nH]cc(c3c2)-c2cn(nc2C(F)(F)F)CCCC1=O [Compound 43]" measured_value="> 7.30"
compound="CN1Cc2nn(C3CCNCC3)cc2-c2cnc3[nH]cc(c3c2)-c2cn(nc2C(F)(F)F)CCC1=O [Compound 65]" measured_value="< 7.00"
compound="CN1Cc2nn(C)cc2-c2cnc3[nH]cc(c3c2)-c2cn(nc2C(F)(F)F)CCC1=O [Compound 63]" measured_value="7.00 to 7.30"

Let us move to another entry and its pIC50.
# input compound: CN1CCCCn2cc(c(C(F)(F)F)n2)-c2c[nH]c3ncc(cc23)-c2cn(C)nc2C1=O [Compound 75] ; wanted: its pIC50 < 7.00

* * *

biological target: various enzymes (Homo sapiens, UniProt P36888, D835V, form not given); construct: Enzyme IC50; other: FLT3(ITD, D835V); test: Enzyme IC50 of compound 48 (Table 3); settings: read-out: Enzyme IC50; FLT3(ITD, D835V)
measured attribute: IC50 (µM)
One number for each entry, in µM.

# input molecule: CN1Cc2nn(C)c(C#N)c2-c2cnc3[nH]cc(c3c2)-c2cn(nc2C(F)(F)F)CCCC1=O ; wanted: its IC50 0.354

* * *

molecular target: various enzymes (Homo sapiens)
measured attribute: IC50 (nM)
Numbers only, in nM.

# input compound: CN1Cc2nn(C)c(C#N)c2-c2cnc3[nH]cc(c3c2)-c2cn(nc2C(F)(F)F)CCCC1=O ; wanted: its IC50 212

* * *

The next entries give measured IC50 for CLK1 (Homo sapiens).

Known results for molecules:
structure_smiles_string=CN1Cc2nn(C3CCNCC3)cc2-c2cnc3[nH]cc(c3c2)-c2cn(nc2C(F)(F)F)CCC1=O system_under_test="CLK1 (Homo sapiens)" measured_attribute=IC50 measured_value="> 100 nM"
structure_smiles_string=COCCn1nc2c(c1C#N)-c1cnc3[nH]cc(c3c1)-c1cn(nc1C(F)(F)F)CCCC(=O)N(C)C2 system_under_test="CLK1 (Homo sapiens)" measured_attribute=IC50 measured_value="> 100 nM"
structure_smiles_string=CN1Cc2nn(C)cc2-c2cnc3[nH]cc(c3c2)-c2cn(nc2C(F)(F)F)CCC1=O system_under_test="CLK1 (Homo sapiens)" measured_attribute=IC50 measured_value="< 50 nM"
structure_smiles_string=CN1CCCCn2cc(c(C(F)(F)F)n2)-c2c[nH]c3ncc(cc23)-c2c(nn(C)c2C#N)C1=O system_under_test="CLK1 (Homo sapiens)" measured_attribute=IC50 measured_value="> 100 nM"
structure_smiles_string=CN1Cc2nn(C)cc2-c2cnc3[nH]cc(c3c2)-c2cn(nc2C(F)(F)F)CCCC1=O system_under_test="CLK1 (Homo sapiens)" measured_attribute=IC50 measured_value="< 50 nM"
structure_smiles_string=CN1Cc2nn(C3CCNCC3)cc2-c2cnc3[nH]cc(c3c2)-c2cn(nc2C(F)(F)F)CCCC1=O system_under_test="CLK1 (Homo sapiens)" measured_attribute=IC50 measured_value="< 50 nM"

# input molecule: COCCn1nc2c(c1C#N)-c1cnc3[nH]cc(c3c1)-c1cn(nc1C(F)(F)F)CCC(=O)N(C)C2 ; wanted: its IC50 > 100 nM

* * *

Kindly state IC50 for each of the entries shown.
target: LRRK2 (G2019S) (Homo sapiens, UniProt Q5S007, G2019S); test: LRRK2(G2019S) enzyme assay (Promega ADP-Glo Kinase assay); details: 25 μM ATP, read-out: Enzyme activity against LRRK2 (G2019S)
Sequence (Q5S007 whole entry G2019S): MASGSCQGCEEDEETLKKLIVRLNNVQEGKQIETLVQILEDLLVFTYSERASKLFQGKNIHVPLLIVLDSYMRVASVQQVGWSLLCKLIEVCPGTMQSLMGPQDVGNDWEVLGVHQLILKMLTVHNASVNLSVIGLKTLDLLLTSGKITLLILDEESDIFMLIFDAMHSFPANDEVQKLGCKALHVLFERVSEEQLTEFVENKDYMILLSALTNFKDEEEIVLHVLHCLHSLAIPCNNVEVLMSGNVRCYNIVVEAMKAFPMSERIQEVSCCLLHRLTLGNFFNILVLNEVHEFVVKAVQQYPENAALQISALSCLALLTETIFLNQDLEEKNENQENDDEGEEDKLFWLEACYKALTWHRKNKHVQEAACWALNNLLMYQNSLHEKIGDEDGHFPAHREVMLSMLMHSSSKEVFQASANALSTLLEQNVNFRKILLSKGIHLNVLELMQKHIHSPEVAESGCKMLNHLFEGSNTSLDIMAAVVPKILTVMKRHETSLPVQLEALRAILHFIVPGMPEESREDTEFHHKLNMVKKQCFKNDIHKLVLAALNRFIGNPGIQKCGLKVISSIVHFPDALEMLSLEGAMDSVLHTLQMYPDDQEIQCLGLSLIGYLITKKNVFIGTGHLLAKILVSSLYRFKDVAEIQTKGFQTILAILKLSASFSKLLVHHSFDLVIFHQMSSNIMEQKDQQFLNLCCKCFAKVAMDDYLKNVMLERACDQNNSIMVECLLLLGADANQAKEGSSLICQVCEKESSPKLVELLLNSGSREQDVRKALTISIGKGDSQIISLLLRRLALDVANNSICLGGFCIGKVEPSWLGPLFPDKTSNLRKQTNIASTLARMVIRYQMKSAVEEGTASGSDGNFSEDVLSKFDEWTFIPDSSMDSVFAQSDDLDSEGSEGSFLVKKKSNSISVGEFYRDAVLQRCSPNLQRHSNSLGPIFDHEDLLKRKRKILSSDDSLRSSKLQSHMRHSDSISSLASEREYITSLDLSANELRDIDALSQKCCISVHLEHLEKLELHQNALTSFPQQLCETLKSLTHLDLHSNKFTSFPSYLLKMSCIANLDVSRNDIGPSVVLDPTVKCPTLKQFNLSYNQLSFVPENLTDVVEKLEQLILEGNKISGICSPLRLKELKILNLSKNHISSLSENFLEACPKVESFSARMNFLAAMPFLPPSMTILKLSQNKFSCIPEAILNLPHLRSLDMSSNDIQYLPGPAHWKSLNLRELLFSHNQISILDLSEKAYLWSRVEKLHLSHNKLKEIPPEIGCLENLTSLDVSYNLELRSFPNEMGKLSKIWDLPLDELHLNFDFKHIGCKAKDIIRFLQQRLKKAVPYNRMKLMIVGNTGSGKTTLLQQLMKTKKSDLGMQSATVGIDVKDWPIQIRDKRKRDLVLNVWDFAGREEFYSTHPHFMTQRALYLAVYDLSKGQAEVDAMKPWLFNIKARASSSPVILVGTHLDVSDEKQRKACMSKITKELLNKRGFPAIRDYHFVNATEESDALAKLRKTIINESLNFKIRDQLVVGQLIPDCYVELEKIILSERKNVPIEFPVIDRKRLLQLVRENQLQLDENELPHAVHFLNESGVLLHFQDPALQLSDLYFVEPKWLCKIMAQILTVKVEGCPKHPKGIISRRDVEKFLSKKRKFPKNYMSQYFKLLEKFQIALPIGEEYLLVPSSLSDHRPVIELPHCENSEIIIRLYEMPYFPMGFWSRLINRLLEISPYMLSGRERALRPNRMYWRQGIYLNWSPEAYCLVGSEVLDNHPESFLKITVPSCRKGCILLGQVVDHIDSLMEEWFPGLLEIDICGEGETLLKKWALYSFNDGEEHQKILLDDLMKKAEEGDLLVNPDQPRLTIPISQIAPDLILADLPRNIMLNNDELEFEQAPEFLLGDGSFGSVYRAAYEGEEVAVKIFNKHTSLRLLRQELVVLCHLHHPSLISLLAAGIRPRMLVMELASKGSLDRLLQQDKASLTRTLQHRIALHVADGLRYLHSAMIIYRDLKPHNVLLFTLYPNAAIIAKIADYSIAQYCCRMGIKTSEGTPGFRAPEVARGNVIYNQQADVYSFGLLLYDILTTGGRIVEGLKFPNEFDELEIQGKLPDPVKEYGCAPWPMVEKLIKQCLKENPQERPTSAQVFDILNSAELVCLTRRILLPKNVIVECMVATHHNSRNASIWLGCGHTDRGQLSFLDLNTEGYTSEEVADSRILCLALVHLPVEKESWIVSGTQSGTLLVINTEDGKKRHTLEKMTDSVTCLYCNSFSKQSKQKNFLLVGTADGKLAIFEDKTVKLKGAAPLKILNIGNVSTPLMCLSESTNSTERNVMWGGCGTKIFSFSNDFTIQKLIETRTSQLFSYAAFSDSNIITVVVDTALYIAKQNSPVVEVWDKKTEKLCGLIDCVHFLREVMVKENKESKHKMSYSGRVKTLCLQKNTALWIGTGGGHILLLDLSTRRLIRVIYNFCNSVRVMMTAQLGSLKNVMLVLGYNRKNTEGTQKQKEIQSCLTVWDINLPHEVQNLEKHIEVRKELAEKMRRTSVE

Known results for compounds:
compound="COCCn1nc2c(c1C#N)-c1cnc3[nH]cc(c3c1)-c1cn(nc1C(F)(F)F)CCCC(=O)N(C)C2 [Compound 61]" measured_attribute=IC50 measured_value="> 100 nM"
compound="CN1Cc2nn(C3CCNCC3)cc2-c2cnc3[nH]cc(c3c2)-c2cn(nc2C(F)(F)F)CCCC1=O [Compound 60]" measured_attribute=IC50 measured_value="> 100 nM"

Let us move to another entry and its IC50.
Notebook entry, LRRK2 (G2019S) (Homo sapiens, UniProt Q5S007, G2019S) assay: IC50 of CN1Cc2nn(C)cc2-c2cnc3[nH]cc(c3c2)-c2cn(nc2C(F)(F)F)CCCC1=O [Compound 43] = ? > 100 nM

* * *

The next entries give measured IC50 for DYRK1B (Homo sapiens).
Answers are plain numbers, in nM.

structure_smiles_string=COc1c2c(nn1C)CN(C(C)C)C(=O)CCCn1cc(c(C(F)(F)F)n1)-c1c(C)[nH]c3ncc-2cc13 unit_of_measurement=nM measured_value=533

Below are 2 molecules. Give each one its IC50.
1. Cc1[nH]c2ncc3cc2c1-c1cn(nc1C(F)(F)F)CCCC(=O)N(C)Cc1nn(C)c(C#N)c1-3
2. COc1c2c(nn1C)CN(C(C)C)C(=O)CCCn1cc(c(C(F)(F)F)n1)-c1c[nH]c3ncc-2cc13

55
146
